TARGET OR TEST SYSTEM: T1, Ube2N^R14A (UniProt P61088 1-152, R14A)
T1 construct: Ube2N, ubiquitin-conjugating enzyme E2 N, with R14A; source: E. coli Rossetta2 (DE3), purified (ion exchange, SEC)
T1 sequence (looked up): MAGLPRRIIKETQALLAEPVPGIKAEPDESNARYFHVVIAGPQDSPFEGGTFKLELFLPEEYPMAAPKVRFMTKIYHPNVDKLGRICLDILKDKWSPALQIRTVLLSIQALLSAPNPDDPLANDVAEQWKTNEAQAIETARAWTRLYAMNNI
ASSAY: ITC; ZNRF1 construct (10–30 µM) in the cell, E2 in the syringe; 25°C; 20 mM sodium phosphate pH 8.0, 150 mM NaCl; single site model
CONDITION INFO: both partners purified
OBSERVATION TYPE: Kd

{"BINDER": "ZNRF1^CTD (C-terminal domain of ZNRF1, residues 139–227) (domain or fragment, UniProt Q8ND25 139-227, looked up, ZNRF1, RING E3 ubiquitin ligase, residues 139-227 of the full-length protein (ZnF and RING domains); also called ZNRF1 C-terminal domain; ZRNF1^CTD; source: E. coli Rossetta2 (DE3), purified (HisTrap, SEC)) SHSGFKCPICSKSVASDEMEMHFIMCLSKPRLSYNDDVLTKDAGECVICLEELLQGDTIARLPCLCIYHKSCIDSWFEVNRSCPEHPAD", "RESULT": "320 nM"}

The measurements presented in this section are drawn from paper PMC5941314.
